Test system: CCRIS mutagenicity, Ames/micronucleus/aberration tests
Experiment: CCRIS mutagenicity studies
Settings: Test System: AMES SALMONELLA TYPHIMURIUM; Strain/Indicator: TA98; Metabolic Activation: RAT, LIVER, S-9, PHENOBARBITAL AND BETA-NAPHTHOFLAVONE; Method: PREINCUBATION
The source made the active and inactive calls. How the calls were made is not given here.
Outcomes: active, inactive

query_smiles	experimental_target	assigned_class
C=C(C)CC(C)(C)C	CCRIS mutagenicity, Ames/micronucleus/aberration tests	inactive
COc1ccc(NC(C)=O)cc1N	CCRIS mutagenicity, Ames/micronucleus/aberration tests	active
NCCNC(=O)c1ccc(Cl)cn1	CCRIS mutagenicity, Ames/micronucleus/aberration tests	inactive
CCCCOC(C)=O	CCRIS mutagenicity, Ames/micronucleus/aberration tests	inactive
CC(C)(C)S(=O)(=O)C[C@@H](Cc1ccccc1)C(=O)N[C@@H](Cc1cnc[nH]1)C(=O)N[C@@H](CC1CCCCC1)[C@@H](O)[C@@H](O)C1CC1	CCRIS mutagenicity, Ames/micronucleus/aberration tests	inactive
CCCCCCCCO	CCRIS mutagenicity, Ames/micronucleus/aberration tests	inactive
COc1cc(NCCCCCNC(C)C)c2ncccc2c1	CCRIS mutagenicity, Ames/micronucleus/aberration tests	inactive
C[N+](C)(C)CCO	CCRIS mutagenicity, Ames/micronucleus/aberration tests	inactive
CCOCCCl	CCRIS mutagenicity, Ames/micronucleus/aberration tests	inactive
